# TEST_TARGET: HIV-protease enzyme (Human immunodeficiency virus type 1 group M subtype B)
# Construct: tested against HIV-protease enzyme (Ki)
# EXPERIMENTAL_PROTOCOL: HIV-protease enzyme inhibition (Ki)
# Assay type: biochemical, HIV-1
ASSAY_ENDPOINT: pKi
The quantity pKi is defined as the negative base-10 logarithm of the molar concentration.

Short answer for O=C(NCc1ccccc1)[C@H](Cc1ccccc1)C[Si](O)(O)C[C@@H](Cc1ccccc1)C(=O)NCc1ccccc1 [Compound 9a] : pKi was 5.50
